assay: Primary qHTS for inhibitors of MERS-S pseudo-typed particle cell entry (AID 1479149); conditions: MERS-S pseudotyped particle entry, luciferase; series mostly up to 57.1 µM; note: nearly all actives have a fitted effect of over 60% in size
Records with an inconclusive call do not appear. Activity calls are given as the source filed them. Calls come from the whole dose curve.
Respond only with the outcome that fits, drawn from Yes = active, No = inactive

Observe how each entry below is paired with its result.
N[C@H](Cc1c[nH]c2ccccc12)C(=O)O; No
Cc1ccc(N=CN(C)C=Nc2ccc(C)cc2C)c(C)c1; No
CCOC(=O)C(C)(C)Oc1ccc(Cl)cc1; No
O=C1c2cccc(O)c2C(=O)c2c(O)cccc21; No
O=Cc1ccccc1C=O; No

Now consider the entry below.
Prompt: How did this test come out for CN(C)C(=O)Oc1cccc([N+](C)(C)C)c1 ?
Response: No

----------
experiment: qHTS of pediatric cancer cell lines to identify multiple opportunities for drug repurposing: Confirmatory screen for OHS-50 cells (AID 1347128); details: OHS-50 osteosarcoma cells viability; series mostly up to 45.9 µM;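 note: compound exposure lasted 48 h at 37 degrees C; nearly all actives have a fitted effect of over 55% in size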
Records with an inconclusive call do not appear. The source made the active and inactive calls. Calls come from the whole dose curve; as a rule, active = well fitted cell-killing curve with a large enough effect; inconclusive = small, poorly fitted or top-dose-only effect, or effect the other way; inactive = no such curve, though single readings can be large or run the other way.
Respond only with the outcome that fits, drawn from active, inactive

Observe how each entry below is paired with its result.
ClC1=C(Cl)C2(Cl)C(CBr)CC1(Cl)C2(Cl)Cl (configuration not stated); inactive
COc1ccc2c(C(=O)c3ccc(Cl)cc3)c(C)n(CC(=O)O)c2c1; inactive
CC1Sc2c(C(=O)O)c(=O)c3cc(F)c(N4CCNCC4)cc3n21 (configuration not stated); inactive
CCCCCCCCCCCC[N+](C)(C)CCOc1ccccc1; active
CC[n+]1c(-c2ccccc2)c2cc(N)ccc2c2ccc(N)cc21; active

Prompt: How did this test come out for COC(=O)C1=CCCN(C)C1 ?
Response: inactive

Prompt: How did this test come out for Cc1ccc([N+](=O)[O-])[c]2c1[O][Hg]2 ?
Response: active

----------
experiment: MultiTox-Fluor Cytotoxicity Assay - LYMP1-003 - Live Cells (AID 962); conditions: LYMP1-003 lymphoblastoid cells, MultiTox-Fluor live-cell protease fluorescence; series mostly up to 92.2 µM;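 note: cells exposed to compound for 16 hours at 37 °C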
Calls of active or inactive are those of the source. The call rests on the fitted dose curve; in most records, active means well fitted cell-killing curve with a large enough effect; inconclusive means small, poorly fitted or top-dose-only effect; inactive means flat fitted curve, though single readings scatter.
Respond only with the outcome that fits, drawn from Y for active, N for inactive

Observe how each entry below is paired with its result.
CN(C)C(=S)SSC(=S)N(C)C; Y
CNC(=O)Oc1cccc2ccccc12; N
Oc1c(Br)cc(Br)cc1Br; N

Prompt: How did this test come out for COP(=O)(OC)OC=C(Cl)Cl ?
Response: N

Prompt: How did this test come out for CC[n+]1c(-c2ccccc2)c2cc(N)ccc2c2ccc(N)cc21 ?
Response: Y

Prompt: How did this test come out for CCCCCCCCCCCC[N+](C)(C)CCOc1ccccc1 ?
Response: Y

----------
conditions: Ebola virus entry assay, green fluorescence channel
Entries with a potency or affinity are not part of this list.
Please go through the items and note down their efficacy.
Answers are plain numbers, in %.

For each of the molecules below, note its efficacy.
1. C[C@@H]1O[C@@H](O[C@@H]2C=C3CC[C@@H]4[C@H](CC[C@]5(C)[C@@H](c6ccc(=O)oc6)CC[C@]45O)[C@@]3(C)CC2)[C@H](O)[C@H](O)[C@H]1O
2. CCCCCN(CCCCC)C(=O)C(CCC(=O)O)NC(=O)c1ccc(Cl)c(Cl)c1 (stereo not given)
3. CN(C)CCCO[C@@H]1[C@H]2OC(C)(C)O[C@H]2O[C@@H]1C(O)CO (stereo not given in full)

Response:
1. 35.7
2. 12.6
3. -11.8

For each of the molecules below, note its efficacy.
1. COc1ccc(OC)c(CC(C)N)c1 (stereo not given)
2. CCN(CC)CCOCCOC(=O)C1(c2ccccc2)CCCC1

Response:
1: 40.3; 2: 62.4

For each of the molecules below, note its efficacy.
1. Cc1ccc(N(CC2=NCCN2)c2cccc(O)c2)cc1
2. Cc1cccc(N(C)C(=S)Oc2ccc3ccccc3c2)c1

Response:
1: 66; 2: 22.5

For each of the molecules below, note its efficacy.
1. Oc1ccc([C@H]2CNCc3c2ccc(O)c3O)cc1O
2. CC(=O)N1CCN(c2ccc(O)cc2)CC1
3. CCCCOc1cc(C(=O)NCCN(CC)CC)c2ccccc2n1
4. Cc1cc(N)c2cc(NC(=O)Nc3ccc4nc(C)cc(N)c4c3)ccc2n1
5. COC(=O)c1nc(Cl)c(Cl)nc1N
6. CC(=O)Oc1ccc(C(c2ccc(OC(C)=O)cc2)c2ccccn2)cc1
7. Nc1ccc(S(=O)(=O)Nc2cnc3ccccc3n2)cc1
8. CC1=C2[C@H]3OC(=O)[C@@H](C)[C@@H]3CC[C@@]2(C)C=CC1=O

Response:
1. 69.3
2. 19.8
3. 119
4. 18
5. 66.4
6. -19
7. -10.5
8. 18.3

These entries and their values trace back to PubChem BioAssay (NCATS).
